B1: Protein root UVB sensitive 1, chloroplastic (Arabidopsis thaliana (Mouse-ear cress)), Q7X6P3 (parent)
chain: MSCSYLLSGDASVVASRRWSDVSSRQRLFLPRQSLRQPSGSSFSRCVRLVANVNDHFSKQSLATRNCLASVFSADLGGSNGNNDNGNGGGGGGDGGGDNSDDSSFDLRYLCFLLLGLSCFFHFRLSAASAIAKDQNSDSNGDAVKETVWEVRGSKRKRLVPDFVKDEFVSEESAFELSSSLTPENLLAQCRNLLTQFLLPEGFPNSVTSDYLDYSLWRGVQGIASQISGVLATQSLLYAVGLGKGAIPTAAAINWVLKDGIGYLSKIMLSKYGRHFDVHPKGWRLFADLLENAAFGMEMLTPVFPQFFVMIGAAAGAGRSAAALIQAATRSCFNAGFASQRNFAEVIAKGEAQGMVSKSVGILLGIVVANCIGTSTSLALAAFGVVTTIHMYTNLKSYQCIQLRTLNPYRASLVFSEYLISGQAPLIKEVNDEEPLFPTVRFSNMKSPEKLQDFVLSSEAKAAAADIEERLQLGSKLSDVIHNKEEAIALFDLYRNEGYILTEHKGRFCVMLKESSTPQDMLRSLFQVNYLYWLEKNAGIEPASTYSDCKPGGRLHISLDYVRREFEHAKEDSESVGWVTEGLIARPLPTRIRLGHDRELLLSSPNSS
partner: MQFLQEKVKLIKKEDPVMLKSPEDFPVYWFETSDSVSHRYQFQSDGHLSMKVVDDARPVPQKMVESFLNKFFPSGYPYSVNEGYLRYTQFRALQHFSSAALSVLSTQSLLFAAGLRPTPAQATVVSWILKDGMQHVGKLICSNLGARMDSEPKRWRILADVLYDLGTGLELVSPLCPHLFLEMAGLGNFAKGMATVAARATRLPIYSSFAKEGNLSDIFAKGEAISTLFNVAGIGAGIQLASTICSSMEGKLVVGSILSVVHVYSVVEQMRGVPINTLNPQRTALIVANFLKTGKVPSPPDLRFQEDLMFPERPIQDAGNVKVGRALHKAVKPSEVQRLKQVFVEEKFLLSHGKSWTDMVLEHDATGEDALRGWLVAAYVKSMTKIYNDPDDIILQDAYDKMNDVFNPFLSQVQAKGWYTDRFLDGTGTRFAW

variants of: B1; settings: with rus2_arath RUS2, Q9SJX7
Assay Endpoint: effect of a mutation on the interaction

# lookup: effect of a mutation on the interaction of "K281G"
disrupting interaction

Queued: "E298G"
decreasing interaction

Queued: "K349G"
disrupting interaction

Queued: "N342G"
decreasing interaction

Measured values drawn from IntAct's records for PubMed 19515790 for this set.
